Target: T1, BKV serotype I infectious virus (VP1) (BK virus serotype I, UniProt P03088 1-362)
T1 sequence (looked up): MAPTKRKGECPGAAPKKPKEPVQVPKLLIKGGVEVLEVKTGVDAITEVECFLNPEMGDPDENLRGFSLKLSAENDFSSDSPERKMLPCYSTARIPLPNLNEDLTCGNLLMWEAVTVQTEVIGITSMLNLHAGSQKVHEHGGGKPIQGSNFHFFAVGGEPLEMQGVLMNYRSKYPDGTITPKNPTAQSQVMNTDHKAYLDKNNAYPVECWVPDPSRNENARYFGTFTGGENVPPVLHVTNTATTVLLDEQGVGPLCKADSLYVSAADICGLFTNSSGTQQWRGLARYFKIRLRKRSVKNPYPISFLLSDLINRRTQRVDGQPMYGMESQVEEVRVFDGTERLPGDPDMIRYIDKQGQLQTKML
Experiment: cell-based or functional assay
If the reported neutralization EC50 equals or exceeds 0.09 µg/mL, assign 1. If not, assign -1.

Has 2081-66-5 (antibody, V domains shown) VH: QVQLQQSGPELVKPGASVRISCKVSGFTFSNSWMNWVKQRPGQGLEWIGRIYPGDGDTQYNEKFKGKATLTADTSSNTAYIQLNSLTSVDSAVFFCARSRSGLDYWGQGTTLTVSS VL: DIQMTQSTSSLSASLGDRVTISCRASQDIYNYLNWFQQKPDGTVKPLIYSTSRLHSGVSSRFSGSGSGTDYSLTISNLEREDIATYFCHQSHTVPFTFGSGTKLEIK a recorded neutralization EC50 greater than or equal to 0.09 µg/mL?
-1

Next binder: 2075-16-1 (antibody, V domains shown) VH: QVQLQQPGSELVRPGASVKLSCKASGYTFTNYWMHWVKQGHGQGLEWIGNIYPGSGNTNYGENFKSKGTLTVDTSSSTAYMHLSRLTSEDSAVYYCSRSAIYYGYDGHYFAMDYWGQGTSVTVSS VL: DIQMTQSPSSLSASLGGKVTITCKASQDIRKYIAWYQHKPGKGPRLLINYTSTLQSGIPSRFRGSGSGRDYSFSISNLEPEDIATYYCLQYDNILFTFGTGTKLEIK
-1

Follow-up item: 2081-38-5 (antibody, V domains shown) VH: QVQLQQSGPELVKPGASVKISCKASGYTFSSSWINWVKQRPGQGLEWIGRIYPGDGDTNYNGKFKGKATLTADKSSSTVDMHLSSLTYVDSAVYFCAIHSSGFPHWGQGTLVTVSA VL: DIQMTQTTSSLSASLGGRVTISCRTSQDISDYLNWYQQKPDGAVKLLIYYTSRLHSGVPSRFSGSGSGTDYSLTISNLEQEDIATYFCQQTNTLPFTFGGGTKLEIK
-1

Can you handle 2081-36-8 (antibody, V domains shown) VH: QVQLQQSGAGLVRPGSSVKISCKTSGYAFSSYWMNWVKQRPGQGLEWIGQIYPGNGDTNYNGKFKGKATLTADKSSNTAYIQLNSLTSEDSAVYFCAREARQGYHYAMDYWGQGTSVTVSL VL: EIVFTQSPTTMAAFPGEKITITCSASSMINSNYLHWYQQKPGFSPKVLIYRTSNLASGVPARFSGTGSGTSFSLTIGTMEAEDVATYYCQQGSNIFTFGSGTKLEIK next?
1

Quick one: 2081-25-6 (antibody, V domains shown) VH: QVQLQQSGAELVRPGSSVKISCKASGYAFSRYWMNWVKQRPGQGLEWIGQIYPGDGDTKYNGKFKDTATLTADKSSSTAYLQLSSLTSEDSAVYFCAKYGNYGMDYWGQGTSVTVSS VL: DAVMTQTPLSLPVSLGDQASISCRSSQSLEYGNGNTYLNWYLQKPGQSPQLLIYRVSNRFSGVLDRFSGSGSGTDFTLKISRVEAEDLGVYFCLQFTHVPYTFGGGTKLEIK
1
